assay.method.text: AUC (0 to infinity) in Sprague-Dawley rat at 1 mg/kg, iv
Format: ADME, organism-based
Parameters: time infinity, dose 1 mg/kg, route intravenous
run.parameters: plasma
property.name: AUC(0-inf) (µM·h)
Express the result in µM·h but write the number alone.

input: Determine from records and report AUC(0-inf) for `Cc1csc(NC(=O)c2cc(Oc3ccc(S(C)(=O)=O)cc3)cc(OC(C)C)c2)n1`
output: 9.7

* * *

test.system: Hexokinase-4 (Homo sapiens, UniProt P35557)
Sequence (P35557 whole entry): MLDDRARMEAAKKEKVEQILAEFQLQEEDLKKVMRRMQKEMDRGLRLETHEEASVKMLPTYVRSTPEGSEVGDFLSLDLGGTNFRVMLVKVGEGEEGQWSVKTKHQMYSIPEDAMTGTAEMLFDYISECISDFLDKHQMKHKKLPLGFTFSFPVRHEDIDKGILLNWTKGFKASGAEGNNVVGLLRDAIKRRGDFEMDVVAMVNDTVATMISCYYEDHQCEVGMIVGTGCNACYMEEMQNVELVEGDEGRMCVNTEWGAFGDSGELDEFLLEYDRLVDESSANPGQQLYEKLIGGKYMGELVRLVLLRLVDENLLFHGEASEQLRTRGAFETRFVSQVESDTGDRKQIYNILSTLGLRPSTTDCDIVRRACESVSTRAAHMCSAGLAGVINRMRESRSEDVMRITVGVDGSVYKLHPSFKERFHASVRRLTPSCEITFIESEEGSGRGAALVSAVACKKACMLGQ
assay.method.text: Activation of flag-tagged human recombinant liver glucokinase expressed in Escherichia coli by glucose-6-phosphate dehydrogenase coupled continuous spectrophotometric assay in presence of 2.5 mM glucose
Recorded measurements of EC50, one per entry
Express the result in nM but write the number alone.

Study these solved cases before continuing.
| input.smiles | EC50 [nM] |
| --- | --- |
| Cc1cccc(Oc2cccc(C(=O)Nc3nc(C)cs3)c2)c1 | 8200 |
| Cc1csc(NC(=O)c2cccc(Oc3ccccc3C)c2)n1 | 3200 |
| Cc1csc(NC(=O)c2cc(Oc3cccc(S(C)(=O)=O)c3)cc(OC(C)C)c2)n1 | 1100 |
| Cc1csc(NC(=O)c2cccc(Oc3ccccc3F)c2)n1 | 2400 |
| Cc1csc(NC(=O)c2cc(Oc3ccccc3)cc(Oc3ccc(S(C)(=O)=O)cc3)c2)n1 | 420 |
| Cc1csc(NC(=O)c2cc(Oc3ccccc3S(C)(=O)=O)cc(OC(C)C)c2)n1 | 2100 |
| COc1ccccc1Oc1cccc(C(=O)Nc2nc(C)cs2)c1 | 2200 |

// next entry
input: Determine from records and report EC50 for `COc1cc(Oc2ccccc2S(C)(=O)=O)cc(C(=O)Nc2nc(C)cs2)c1`
output: 11000
